# System: MiaPaCa.2 (human pancreas)
# protocolSummary: MTT cytotoxicity assay, MiaPaCa.2 cells
# Type: cell-based
# conditionInfo: human, 48 hours, 100 nM
Starred links: 1 amine or outer side, 2 acyl side, 3 side chain; linkers in the order of their positions; H or OH if unused. Non-standard residues stand in square brackets, D forms with d. Residues, ends and D or L forms follow the SMILES beside them. 2Furoyl(5-aminomethyl) = O=C(c1ccc(CN[*:1])o1)[*:2]; X1 = O=C(C1CCC(CN[*:1])O1)[*:2]
measure: Percent Cytotoxicity (%)
Note: unit % is implicit; provide only the numeric part.

Enquiry: I would be grateful if you could share the reported Percent Cytotoxicity for CSCC[C@H](NC(=O)[C@@H](N)CC(C)C)C(=O)N[C@@H](Cc1ccc(O)cc1)C(=O)NCC1CCC(C(=O)N[C@@H](Cc2ccc(O)cc2)C(=O)N[C@@H](CC(C)C)C(=O)N[C@@H](CCCCN)C(=O)O)O1 (stereo partly drawn) [SEQ ID NO: 12, Leu-Met-Tyr-Saa3-Tyr-Leu-Lys] (H-LMY[X1]YLK-OH) .
Return: 21.9

Enquiry: And for CSCC[C@H](N)C(=O)NCc1ccc(C(=O)N[C@@H](Cc2ccc(O)cc2)C(=O)N[C@@H](CC(C)C)C(=O)O)o1 [SEQ ID NO: 14, Met-Saa1-Tyr-Leu] ?
Return: 7.0

Enquiry: And for CSCC[C@H](NC(=O)[C@@H](N)CC(C)C)C(=O)N[C@@H](Cc1ccc(O)cc1)C(=O)NCc1ccc(C(=O)N[C@@H](Cc2ccc(O)cc2)C(=O)N[C@@H](CC(C)C)C(=O)N[C@@H](CCCCN)C(=O)O)o1 [SEQ ID NO: 10, Leu-Met-Tyr-Saa1-Tyr-Leu-Lys] (H-LMY[2Furoyl(5-aminomethyl)]YLK-OH) ?
Return: 9.0

Enquiry: And for CSCC[C@H](NC(=O)[C@@H](N)CC(C)C)C(=O)NCc1ccc(C(=O)N[C@@H](Cc2ccc(O)cc2)C(=O)N[C@@H](CC(C)C)C(=O)N[C@@H](CCCCN)C(=O)O)o1 [SEQ ID NO: 18, Leu-Met-Saa1-Tyr-Leu-Lys] (H-LM[2Furoyl(5-aminomethyl)]YLK-OH) ?
Return: 18.5

Values from patent US7060678B2
